The measurements presented in this section are drawn from patent US20240059769A1.

Biological target: T1, recombinant human IL-13 (human, UniProt P35225 35-146)
T1 construct: also called rh-IL-13; hIL-13
T1 sequence (P35225 35-146 limits assumed): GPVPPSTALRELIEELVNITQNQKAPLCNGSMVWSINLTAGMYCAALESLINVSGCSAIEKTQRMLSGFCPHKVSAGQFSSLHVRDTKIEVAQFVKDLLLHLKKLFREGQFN
Assay: SPR
metric: kon

Prompt: Give the reported value of kon for this record: BDG38.091 (antibody, V domains shown, IgG1) VH: QMQLVESGGGVVQPGRSLTLSCAASGFEFRTYGMHWVRQAPGKGLEWLGVIWYDGSNTHYADSVKGRFTITRDNSKNTLNLQMNSLRVEDTAVYYCVRAPQWYLTAEAFDLWGQGTMVTVSS VL: SYILTQPPSVSVAPGETATITCGGNLIGSRLVHWYQQKPGQAPVLVIYDDSDRPSRIPERFSGSNIGNTATLTISDVEAGDEADYYCQVWDHYSNHYVFGGGTKLTVL
Completion: 3.57e+06 M⁻¹ s⁻¹

Prompt: Give the reported value of kon for this record: BDG38.117 (antibody, V domains shown, IgG1) VH: QMQLVESGGGVVQPGRSLTLSCAASGFEFRTYGMHWVRQAPGKGLEWVGVIWDDGSNTHYADSVKGRFTITRDNSKNTLNLQMNSLRAEDTAVYYCARAPQWYLTAEAFDLWGQGTMVTVSS VL: SYVLTQPPSVSVAPGETATITCGGNLIGAKLVHWYQQKPGQAPVLVIYDDSDRPSRIPERFSGSNIGNTATLTIEDVEAGDEADYYCQVWDYSSDTMVFGGGTKLTVL
Completion: 6.94e+06 M⁻¹ s⁻¹

Prompt: Give the reported value of kon for this record: BDG38.098 (antibody, V domains shown, IgG1) VH: QMQLVESGGGVVQPGRSLTLSCAASGFEFRTYGMHWVRQAPGKGLEWVAVIWDDGSNTVYADSVKGRFTITRDNSKNTLNLQMNSLRVEDTAVYYCVRAPQWYLTAEAFDLWGQGTMVTVSS VL: SYVLTQPPSVSVAPGQTATITCGGNLIGARLVHWYQQKPGQAPVLVIYDDSDRPSRIPERFSGSNIGNTATLTISRVEAGDEADYYCQVWDYSSDSMVFGGGTKLTVL
Completion: 5.8e+06 M⁻¹ s⁻¹

Prompt: Give the reported value of kon for this record: BDG38.092 (antibody, V domains shown, IgG1) VH: QMQLVESGGGVVQPGRSLTLSCAASGFEFRTYGMHWVRQAPGKGLEWLAVIWDDGSNTHYADSVKGRFTITRDNSKNTLNLQMNSLRVEDTAVYYCVRAPQWYLTAEAFDLWGQGTMVTVSS VL: SYVLTQPPSVSVAPGETATITCGGNLIGARLVHWYQQKPGQAPVLVIYDDSDRPSRIPERFSGSNIGNTATLTISDVEEGDEADYYCQVWDYYSDHMVFGGGTKLTVL
Completion: 5.65e+06 M⁻¹ s⁻¹
